System: Caov-3 (Ovarian Carcinoma)
procedure.text: combination Emax (second highest fraction inhibited in the dose matrix, 72 h); higher = more inhibition; extreme values may be limits of the assay
// label = Criterion met if combination Emax is not less than 0.8, otherwise Criterion not met

These recorded examples may help you get a feel for the data.
# compound, assigned.class
measured = [
    ("Cc1cc2ncnn2cc1Nc1ncc2c(n1)n(C1CCOCC1)c(=O)n2C [AZD7648] + C[C@@H]1COCCN1C2=NC(=NC(=C2)C3(CC3)[S@](=N)(=O)C)C4=C5C=CNC5=NC=C4 [AZD6738] (first compound max 10 µM, 7x7, partner max 10 µM)", "Criterion not met"),
    ("CC1(C)CCC(CN2CCN(c3ccc(C(=O)NS(=O)(=O)c4ccc(NCC5CCOCC5)c([N+](=O)[O-])c4)c(Oc4cnc5[nH]ccc5c4)c3)CC2)=C(c2ccc(Cl)cc2)C1 [Venetoclax] + CCN(CCO)CCCOc1ccc2c(Nc3cc(CC(=O)Nc4cccc(F)c4)[nH]n3)ncnc2c1 [AZD2811] (first compound max 1 µM, 7x7, partner max 1 µM)", "Criterion met"),
    ("CN(CCO)CC[C@H](CSc1ccccc1)Nc1ccc(S(=O)(=O)NC(=O)c2ccc(N3CCC([C@@H](O)c4ccccc4-c4ccc(Cl)cc4)CC3)cc2)cc1S(=O)(=O)C(F)(F)F [AZD4320] + CCN(CCO)CCCOc1ccc2c(Nc3cc(CC(=O)Nc4cccc(F)c4)[nH]n3)ncnc2c1 [AZD2811] (first compound max 1 µM, 7x7, partner max 1 µM)", "Criterion met"),
]

Now look at this one.
Check the entry Cc1c2c(nn1C)CSCc1cc(n(C)n1)CSc1cc(c3ccccc3c1)OCCCc1c(C(=O)O)n(C)c3c-2c(Cl)ccc13 [AZD5991] + CC1(C)CCC(CN2CCN(c3ccc(C(=O)NS(=O)(=O)c4ccc(NCC5CCOCC5)c([N+](=O)[O-])c4)c(Oc4cnc5[nH]ccc5c4)c3)CC2)=C(c2ccc(Cl)cc2)C1 [Venetoclax] (first compound max 1 µM, 7x7, partner max 1 µM) : does combination Emax equal or exceed 0.8?
Criterion not met
